Recorded PBM binding z-score values for a group of sequences are listed next.
- System: PPARg DBDmut:RXRa IVT, anti-PPARg (DBD mutation: PPARg1 K132A/R137A, NR concentration 270 nM, RXRa partner concentration 90 nM)
- assay remarks: PBM binding z-score (relative to random genomic background probes); higher = stronger binding; sequences stand for … in GC…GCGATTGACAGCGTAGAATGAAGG
endpoint label: PBM binding z-score

| sequence text | result value |
| --- | --- |
| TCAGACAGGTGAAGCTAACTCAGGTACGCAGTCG | 0.0407 |
| AGAATGAGGTTGTACGTAGATCAGGGAAGAAAGT | 0.8 |
| GATTCAGGGTCAAGGCCAGAGTACGCGTATTGAT | 1.51 |
| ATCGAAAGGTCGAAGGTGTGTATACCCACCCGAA | 0.695 |
| GCAGACAGGTGAAACGCAGGTAACTCAAGGTGGC | -0.233 |
| ATATGTAGGTTATCGGGTCACTCAGTTTGCGCAT | 1.5 |
| CCTACTGGGCCAAAGGTCATGGATTCCAATGCTC | -0.19 |
| CGAACTAGGTCAAGGACGGTGAATCTCCGCACGC | 0.422 |
| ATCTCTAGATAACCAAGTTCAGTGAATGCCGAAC | 0.627 |
| TCACCAAGGTGAAAGGTCGTTGATGCACGCCTTG | 0.292 |
| AGTCAAAGTCCAGGACGAGGTAACGTAAAGCACG | 0.282 |
| AGTCAAAGTTCATCTAGGTAATGTAAGATATGCT | 1.3 |
| TCAAATAGGTAAAAGGTGAAAGTCGGTGTGGTAA | 0.779 |
| CCGACTGGGGGATAAGGTTACCATAAGCCAGCCC | 1.28 |
| CGAACTAGGTCACTGACAGGACAGTGAATAGTAA | 0.923 |
| ATATGTAGGTTAAGGGTCATTCAAGTTGGTTCGC | 1.56 |
| GTACCAAGGTGAATAGGTCGTTAATGAGTAGGCG | 0.399 |
| CCTGCTAGGTCATCGTCAGCTAATCTACAGTATG | -0.277 |
| CCTACTGGGCCATTCAGAGGCCATTGATCATATG | -0.542 |
| ATCGAAAGTTCGAAGGTGAGTATACCCACCCGAA | 0.525 |
| CGTCAAAATTCAACTAAGGTAACGTAAAGCACGC | 0.555 |
| CCTAGCAGGCCAATGTGGGTCACTCAAGGCTTGA | -0.196 |
| CCTACTGGGCTATCAGGTCATTGATATCAACGTT | 0.0312 |
| CAGACTGGGGCATAAGGTTACCATAAGCCAGCCC | -0.272 |
| CCTGGTTGGTCAAGGTCACACACGCTATAGGTAC | 0.676 |
| ATCGAAACGTCGAGGTGAGTATAGAGAAAGGGAA | 0.306 |
| CCTACTGGGCCAAAAAGCTCATTGATGCCGATAA | -0.849 |
| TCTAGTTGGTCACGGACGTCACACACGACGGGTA | 1.1 |
| AGAACGAGGGCACGCTGAGTTGCTAGCAGAGTAG | -0.0983 |
| CAAACTAGGTCAAGAGGTCAAATTCCGCTTCCCG | 2.67 |
| ATATTTAGGTTAGCTGGGGTCATTCAGACTAGGC | 2.64 |
| ACTAGCAGGCGAAGGGTCACTCAAGATTAGTCCG | -0.671 |
| TGAATGAGGTTAAAGAGCAGGGAACGTGGCGTCG | -0.099 |
| ACAGACAGGTGAGTTAAGGTAACTCAGCTGGACG | 0.0974 |
| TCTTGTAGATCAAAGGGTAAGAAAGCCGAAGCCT | -0.0494 |
| CAAACTAGGTCAATGTCAAAGTCGGTTTGTGCCA | 5.32 |
| CCTCGGAGGACAACAGGAGGTGAGAGCTGCCAGA | -1.46 |
| TCTTTTAGATCAAAGGTTAAGAAAGCCGAAGCCT | 1.08 |
| GCATATAGGTAATACAAGGTAAAAGTCCGATTGT | 0.397 |
| ATCTCTAAGTAAAGTTCAGTGAAAGATCGATAGA | 1.26 |
| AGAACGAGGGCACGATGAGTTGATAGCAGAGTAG | 0.853 |
| ATAGGTAGGTTATCGGGTCATTCAGTTTGCGCAT | 1.49 |
| CCTAGCAGGCCAGGGTCACTCAAGCATTTCGCTT | -0.961 |
| CTACCAAGGTGAACATGGTCGTTGATTACTATTC | 0.872 |
| ACATACAGGTGATGAAGGTAACTCAGGCTATCAT | 1.17 |
| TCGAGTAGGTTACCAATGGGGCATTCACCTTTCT | 0.0374 |
| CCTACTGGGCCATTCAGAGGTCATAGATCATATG | 0.601 |
| GCCCGGAGGACAAGGTCAGAGCTTTGTCCGTAGA | -1.17 |
| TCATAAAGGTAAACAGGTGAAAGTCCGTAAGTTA | 0.109 |
| TCTATTAGTTGATCAGGGCAACCGAAACAGCGGA | 0.672 |
| AGAATCAGGTTATTAAGATCAGGGAATTGCGGTC | 0.999 |

###

- System: PPARg homodimer (NR concentration 180 nM)
- assay remarks: PBM binding z-score (relative to random genomic background probes); higher = stronger binding; sequences stand for … in GC…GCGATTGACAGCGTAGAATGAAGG
endpoint label: PBM binding z-score

| sequence text | result value |
| --- | --- |
| CTTGAAAGGTCGTGCTCAGGTGAGTATACCAAAC | 1.71 |
| ATCTCTAGGCAAAAGTTCAGTGAATCCCGAGGAT | 1.05 |
| GCTTACGGGTCAAAGTTTATAGCATGAATAGAAT | 2.34 |
| ATCGAAATGTCGACGAGGTGAGTATACACCGTTT | -0.253 |
| GGAACGAGGGCAAAGTAGATAGCATCTGTCGACG | 0.234 |
| TCTGCTAGGTCAACGATGGTCAGCTACTCTGCTA | 0.254 |
| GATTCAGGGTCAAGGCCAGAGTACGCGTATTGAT | 3.59 |
| CCTACTGGGCCAAGGTCCTTGATCAGTCAAAGCA | -0.287 |
| AGAACGTGGGCAATGAGTTGATAGCACGGGTGGC | -0.516 |
| ATACCAAGGTGACCGTGAGGTCGTTGATACTAAC | 1.4 |
| CCTTACGGGTCACCCCAGGTTATAGCATCGGAGT | 2.12 |
| TCATATAGGTAAACAGGTGAAAGGCCGTAAGTTA | 1.42 |

###

- Tested on: THRa homodimer (NR concentration 90 nM)
- assay remarks: PBM binding z-score (relative to random genomic background probes); higher = stronger binding; sequences stand for … in GC…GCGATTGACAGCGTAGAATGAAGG
endpoint label: PBM binding z-score

| sequence text | endpoint label | result value |
| --- | --- | --- |
| TAGCCTAGGTCATGCGAGCCAGTATAGTGTCGGC | PBM binding z-score | 1.03 |
| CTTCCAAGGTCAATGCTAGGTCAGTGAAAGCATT | PBM binding z-score | 3.09 |
| GCGACTGGGGCAAAGCAGATTACCATAAGGTTGG | PBM binding z-score | -0.248 |
| TCTATTAGTTCAAGGGCAACCGACGAGTCCGTTT | PBM binding z-score | 1.36 |
| ATCTCTAGGTAAAAGTTCAGTGAATCCCGAGGAT | PBM binding z-score | 0.375 |
| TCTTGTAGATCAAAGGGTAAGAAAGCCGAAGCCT | PBM binding z-score | -0.878 |
| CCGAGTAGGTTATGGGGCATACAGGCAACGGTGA | PBM binding z-score | -0.0646 |
| CCTACTGGGCCAAAAAGGTCATTGCTGCCGATAA | PBM binding z-score | 0.486 |
| AATACAGGGTCATCGTAGGCCAGGGTACGCACAG | PBM binding z-score | 1.69 |
| CCTACTGGGCCATTCAGAGGTAATTGATCATATG | PBM binding z-score | -0.433 |
| TCTATCAGGCCAGAGGGTCACTCAAGAGGTACGG | PBM binding z-score | 0.348 |
| GCGACTGGGGCAAAGTAGGTTACCATAAGGTTGG | PBM binding z-score | 0.208 |

###

- System: RARa homodimer (NR concentration 270 nM)
- assay remarks: PBM binding z-score (relative to random genomic background probes); higher = stronger binding; sequences stand for … in GC…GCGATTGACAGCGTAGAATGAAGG

| sequence text | PBM binding z-score |
| --- | --- |
| CAAACTAGGTCACCGGAAGGTCAAATTCCGCATG | 3.35 |
| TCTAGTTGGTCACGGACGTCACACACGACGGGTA | 0.469 |
| CCTAGCAGGCCAGGGTCAGTCAAGCATTTCGCTT | -0.695 |
| TCATATAGGTGAACAGGTGAAAGTCCGTAAGTTA | 0.907 |
| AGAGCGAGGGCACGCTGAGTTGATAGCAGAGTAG | -0.451 |
| ACTAGTAGTTGACTTAGGGCAACCGATACGACGC | 0.281 |
